Cited source: the supplement of paper PMC10567573

B1: CCDC6 (parent)
chain: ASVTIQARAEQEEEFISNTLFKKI

variants of: B1; test: protein stability index of a GFP-peptide fusion (GPS, HEK-293T) (PSI 1-6); higher = more stable; conditions: c terminus: a fixed tail appended;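 note: lentivirally expressed fusions sorted by FACS into six bins by GFP to DsRed ratio, PSI derived from sequencing read proportions per bin multiplied by bin number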
Output yes (1) for protein stability index not less than 4; output no (0) otherwise.

A selection of reference data follows.
changes=E10N assigned_class="no (0)"
changes=S17D assigned_class="yes (1)"
changes=I24D assigned_class="yes (1)"

Here is another variant to look at.
stdin: Hello, I need to know if F21R has measured protein stability index not below 4. Thanks!
stdout: yes (1)
